measured_on: hERG (KCNH2) (Homo sapiens, UniProt Q12809)
experiment: Inhibition of human ERG at 3 uM by patchxpress assay
readout_type: inhibition at 3 µM (%)
One number for each entry, in %.

input: Enter reported inhibition at 3 µM observed with hERG (KCNH2) (Homo sapiens, UniProt Q12809) for COC1COCCC1N[C@@H]1C[C@H]2CN(C(=O)OCCC3CCOCC3)C[C@@]2(C(=O)N2CCc3ncc(C(F)(F)F)cc3C2)C1 (mixture of isomers)
output: 7.3

====

measured_on: Voltage-gated inwardly rectifying potassium channel KCNH2 (Homo sapiens, UniProt Q12809)
Sequence (Q12809 whole entry): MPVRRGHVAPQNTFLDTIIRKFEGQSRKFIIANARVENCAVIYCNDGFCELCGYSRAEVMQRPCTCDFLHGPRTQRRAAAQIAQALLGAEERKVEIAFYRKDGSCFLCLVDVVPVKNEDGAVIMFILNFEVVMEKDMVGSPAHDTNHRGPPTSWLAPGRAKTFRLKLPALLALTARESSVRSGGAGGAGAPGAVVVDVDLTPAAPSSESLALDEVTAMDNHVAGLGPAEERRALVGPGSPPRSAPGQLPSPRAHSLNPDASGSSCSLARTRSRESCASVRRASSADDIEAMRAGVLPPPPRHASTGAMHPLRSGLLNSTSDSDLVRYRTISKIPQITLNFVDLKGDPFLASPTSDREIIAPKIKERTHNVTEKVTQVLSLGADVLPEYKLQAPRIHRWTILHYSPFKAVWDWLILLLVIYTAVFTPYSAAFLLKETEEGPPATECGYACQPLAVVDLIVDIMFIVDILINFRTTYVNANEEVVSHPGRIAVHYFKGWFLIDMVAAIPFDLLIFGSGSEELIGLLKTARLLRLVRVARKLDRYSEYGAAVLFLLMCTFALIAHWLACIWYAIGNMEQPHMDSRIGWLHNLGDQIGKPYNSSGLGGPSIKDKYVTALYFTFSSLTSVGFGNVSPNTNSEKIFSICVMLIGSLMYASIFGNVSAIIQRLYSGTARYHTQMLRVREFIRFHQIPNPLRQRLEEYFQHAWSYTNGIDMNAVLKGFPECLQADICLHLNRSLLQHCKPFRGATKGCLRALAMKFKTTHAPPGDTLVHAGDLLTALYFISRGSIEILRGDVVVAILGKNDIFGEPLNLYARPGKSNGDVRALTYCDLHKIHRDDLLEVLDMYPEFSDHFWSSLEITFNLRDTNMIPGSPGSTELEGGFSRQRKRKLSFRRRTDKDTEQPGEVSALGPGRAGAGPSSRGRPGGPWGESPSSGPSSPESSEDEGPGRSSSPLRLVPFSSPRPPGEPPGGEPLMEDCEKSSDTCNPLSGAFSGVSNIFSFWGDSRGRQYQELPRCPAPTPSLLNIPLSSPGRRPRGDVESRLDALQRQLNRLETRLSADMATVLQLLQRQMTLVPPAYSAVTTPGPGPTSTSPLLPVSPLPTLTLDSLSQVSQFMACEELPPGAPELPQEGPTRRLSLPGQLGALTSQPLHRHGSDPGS
pIC50: −log10 of the molar value.
Exercise: for every item that follows, state its recorded pIC50.

Look over these answered cases.
| compound | pIC50 |
| --- | --- |
| COC1COCCC1N[C@@H]1C[C@H]2CN(C(=O)/C=C/c3ccccc3)C[C@@]2(C(=O)N2CCc3ncc(C(F)(F)F)cc3C2)C1 (mixture of isomers) | 4.62 |
| COC1COCCC1N[C@@H]1C[C@H]2CN(C(=O)NCc3ccccc3)C[C@@]2(C(=O)N2CCc3ncc(C(F)(F)F)cc3C2)C1 (mixture of isomers) | < 4.30 |
| COC1COCCC1N[C@@H]1C[C@H]2CN(/C(N)=N\C#N)C[C@@]2(C(=O)N2CCc3ncc(C(F)(F)F)cc3C2)C1 (mixture of isomers) | < 4.30 |
| COC1COCCC1N[C@@H]1C[C@H]2CN(C(=O)OCC(C)C)C[C@@]2(C(=O)N2CCc3ncc(C(F)(F)F)cc3C2)C1 (mixture of isomers) | < 4.30 |
| COC1COCCC1N[C@@H]1C[C@H]2CN(C(=O)OCCN3CCOCC3)C[C@@]2(C(=O)N2CCc3ncc(C(F)(F)F)cc3C2)C1 (mixture of isomers) | < 4.30 |
| CCN1C[C@@H]2C[C@@H](NC3CCOCC3OC)C[C@]2(C(=O)N2CCc3ncc(C(F)(F)F)cc3C2)C1 (mixture of isomers) | 4.37 |
| COC1COCCC1N[C@@H]1C[C@H]2CN(c3nccs3)C[C@@]2(C(=O)N2CCc3ncc(C(F)(F)F)cc3C2)C1 (mixture of isomers) | < 4.30 |
| COC1COCCC1N[C@@H]1C[C@H]2CNC[C@@]2(C(=O)N2CCc3ncc(C(F)(F)F)cc3C2)C1 (mixture of isomers) | < 4.30 |

Hi team, please reply with pIC50 for each item in this list.
1. COC1COCCC1N[C@@H]1C[C@H]2CN(c3ccccc3)C[C@@]2(C(=O)N2CCc3ncc(C(F)(F)F)cc3C2)C1 (mixture of isomers)
2. COC1COCCC1N[C@@H]1C[C@H]2CN(C(=O)OCC(C)(C)C)C[C@@]2(C(=O)N2CCc3ncc(C(F)(F)F)cc3C2)C1 (mixture of isomers)
3. CNC(=O)N1C[C@@H]2C[C@@H](NC3CCOCC3OC)C[C@]2(C(=O)N2CCc3ncc(C(F)(F)F)cc3C2)C1 (mixture of isomers)
4. COC1COCCC1N[C@@H]1C[C@H]2CN(C(=O)C#CC3CC3)C[C@@]2(C(=O)N2CCc3ncc(C(F)(F)F)cc3C2)C1 (mixture of isomers)

output:
1: 4.64; 2: < 4.30; 3: < 4.30; 4: 4.30

====

experiment: Cmax in rat at 10 mg/kg, po
Format: ADME, organism-based
Parameters: dose 10 mg/kg, route oral
condition_notes: in vivo
readout_type: Cmax (ng/mL)
Answers are plain numbers, in ng/mL.

| compound | Cmax / ng/mL |
| --- | --- |
| COC1COCCC1N[C@@H]1C[C@H]2CN(C(=O)OCCC3CCOCC3)C[C@@]2(C(=O)N2CCc3ncc(C(F)(F)F)cc3C2)C1 (mixture of isomers) | 145 |

// moving on: another record for Cmax
input: I am curious: what Cmax value has been reported for COC1COCCC1N[C@@H]1C[C@H]2CN(C(N)=O)C[C@@]2(C(=O)N2CCc3ncc(C(F)(F)F)cc3C2)C1 (mixture of isomers) ?
output: 70.6

====

Exercise: for every item that follows, state its recorded AUC.
experiment: AUC in rat at 10 mg/kg, po
Assay type: ADME, organism-based
Set-up: dose 10 mg/kg, route oral
condition_notes: plasma
Please format your answer as a value with the unit trailing.

| compound | reported_result |
| --- | --- |
| COC1COCCC1N[C@@H]1C[C@H]2CN(C(=O)OCCC3CCOCC3)C[C@@]2(C(=O)N2CCc3ncc(C(F)(F)F)cc3C2)C1 (mixture of isomers) | 427 ng·h/mL |

input: I am curious: what AUC value has been reported for COC1COCCC1N[C@@H]1C[C@H]2CN(C(N)=O)C[C@@]2(C(=O)N2CCc3ncc(C(F)(F)F)cc3C2)C1 (mixture of isomers) ?
output: 74 ng·h/mL

====

measured_on: C-C chemokine receptor type 2 (Homo sapiens, UniProt P41597)
Sequence (P41597 whole entry): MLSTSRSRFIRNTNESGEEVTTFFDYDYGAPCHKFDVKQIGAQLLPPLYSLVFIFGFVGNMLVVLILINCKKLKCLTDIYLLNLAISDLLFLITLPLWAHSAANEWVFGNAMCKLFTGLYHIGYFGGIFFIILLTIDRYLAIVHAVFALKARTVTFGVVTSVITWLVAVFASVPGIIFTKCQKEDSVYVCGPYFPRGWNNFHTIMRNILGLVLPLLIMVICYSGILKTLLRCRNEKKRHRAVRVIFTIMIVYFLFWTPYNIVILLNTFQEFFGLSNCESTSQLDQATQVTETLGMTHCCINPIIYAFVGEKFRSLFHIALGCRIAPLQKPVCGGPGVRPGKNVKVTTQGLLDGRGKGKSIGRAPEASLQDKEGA
readout_type: log10 of IC50 (log10 of the value in nM)
Give log10 of IC50, with IC50 taken in nM.

Look over these answered cases.
| compound | measured_on | reported_result |
| --- | --- | --- |
| COC1COCCC1N[C@@H]1C[C@H]2CN(c3ccccc3)C[C@@]2(C(=O)N2CCc3ncc(C(F)(F)F)cc3C2)C1 (mixture of isomers) | C-C chemokine receptor type 2 (Homo sapiens, UniProt P41597) | 1.79 |
| COC1COCCC1N[C@@H]1C[C@H]2CN(C(=O)NC(C)C)C[C@@]2(C(=O)N2CCc3ncc(C(F)(F)F)cc3C2)C1 (mixture of isomers) | C-C chemokine receptor type 2 (Homo sapiens, UniProt P41597) | 2.61 |
| COCCOC(=O)N1C[C@@H]2C[C@@H](NC3CCOCC3OC)C[C@]2(C(=O)N2CCc3ncc(C(F)(F)F)cc3C2)C1 (mixture of isomers) | C-C chemokine receptor type 2 (Homo sapiens, UniProt P41597) | 1.91 |
| COC1COCCC1N[C@@H]1C[C@H]2CN(c3nccs3)C[C@@]2(C(=O)N2CCc3ncc(C(F)(F)F)cc3C2)C1 (mixture of isomers) | C-C chemokine receptor type 2 (Homo sapiens, UniProt P41597) | 2.18 |
| COC1COCCC1N[C@@H]1C[C@H]2CN(C(=O)Oc3ccccc3)C[C@@]2(C(=O)N2CCc3ncc(C(F)(F)F)cc3C2)C1 (mixture of isomers) | C-C chemokine receptor type 2 (Homo sapiens, UniProt P41597) | 2.75 |
| COC1COCCC1N[C@@H]1C[C@H]2CN(C(=O)/C=C/C(C)(C)C)C[C@@]2(C(=O)N2CCc3ncc(C(F)(F)F)cc3C2)C1 (mixture of isomers) | C-C chemokine receptor type 2 (Homo sapiens, UniProt P41597) | 1.83 |

Hi team, please reply with log10 of IC50 for each item in this list.
1. CNC(=O)N1C[C@@H]2C[C@@H](NC3CCOCC3OC)C[C@]2(C(=O)N2CCc3ncc(C(F)(F)F)cc3C2)C1 (mixture of isomers)
2. COC1COCCC1N[C@@H]1C[C@H]2CN(C(=O)OCCNC(C)=O)C[C@@]2(C(=O)N2CCc3ncc(C(F)(F)F)cc3C2)C1 (mixture of isomers)
3. COC1COCCC1N[C@@H]1C[C@H]2CN(C(=O)OCC(C)C)C[C@@]2(C(=O)N2CCc3ncc(C(F)(F)F)cc3C2)C1 (mixture of isomers)
4. COC1COCCC1N[C@@H]1C[C@H]2CN(C(=O)OCc3ccccc3)C[C@@]2(C(=O)N2CCc3ncc(C(F)(F)F)cc3C2)C1 (mixture of isomers)

output:
[1.89, 1.65, 1.54, 2.07]
